compounds and their reported Accuracy Bias 8 h
# assayInfo: Stability of flavonoids and biotransformation products in mouse plasma under different handling conditions
# Assay type: in vitro ADME, mice
# setupConditions: room temperature (25 °C), 8 h; low nominal conc.
Enter your answer as a number in %; do not include the unit.

Recorded results for 2 compounds are shown here.
1) C[C@@H]1O[C@@H](Oc2c(-c3ccc(O)c(O)c3)oc3cc(O)cc(O)c3c2=O)[C@H](O)[C@H](O)[C@H]1O | −4.83
2) O=C(O)Cc1ccc(O)cc1 [p-HPAA, para-hydroxyphenylacetic acid] | 1.40

The compound `C[C@@H]1O[C@@H](OC[C@H]2O[C@@H](Oc3c(-c4ccc(O)c(O)c4)oc4cc(O)cc(O)c4c3=O)[C@H](O)[C@@H](O)[C@@H]2O)[C@H](O)[C@H](O)[C@H]1O` showed Accuracy Bias 8 h equal to 5.46

The compound O=c1c(O[C@@H]2O[C@H](CO)[C@@H](O)[C@H](O)[C@H]2O)c(-c2ccc(O)c(O)c2)oc2cc(O)cc(O)c12 [Quercetin glucoside, quercetin glucoside] showed Accuracy Bias 8 h equal to 1.62

The compound `O=c1c(O)c(-c2ccc(O)cc2)oc2cc(O)cc(O)c12` showed Accuracy Bias 8 h equal to −7.28

The compound O=C(O)Cc1cccc(O)c1 [m-HPAA, meta-hydroxyphenylacetic acid] showed Accuracy Bias 8 h equal to 2.23

The compound O=C(/C=C/c1ccc(O)cc1)OC[C@H]1O[C@@H](Oc2c(-c3ccc(O)cc3)oc3cc(O)cc(O)c3c2=O)[C@H](O)[C@@H](O)[C@@H]1O [Tiliroside, tiliroside] showed Accuracy Bias 8 h equal to 6.26

The compound O=C(O)Cc1ccc(O)c(O)c1 [DOPAC, 3,4-dihydroxyphenylacetic acid] showed Accuracy Bias 8 h equal to 0.03
